Tested on: HOP-62 NSCLC
Assay remarks: NCI tumour cell line growth inhibition, 48 h
Observed property: log10 of TGI (log10 of the value in µM)
log10 TGI, µM

Form: Entry = CN(C)CCCC1(c2ccc(F)cc2)OCc2cc(-c3cccc4[nH]ccc34)ccc21 (stereo not given) | System = HOP-62 NSCLC | log10 of TGI = ____ 0.46

Record: `CCCCCOc1ccc(/C=N/Nc2cc(C)nc3ccc(Cl)cc23)cc1` 0.52

Record: `COc1ccc2c(c1)c1c(n2CCN2CCCCC2)-c2cccc(OC)c2CC1` 1.51

Record: CN(CCN1CCCC1)C1CCc2cc(Cl)c(Cl)cc2C1 (stereo not given) 1.51

Record: `COc1cc2c(N3CCN(C(=O)Nc4ccc(OC(C)C)cc4)CC3)ncnc2cc1OCCCN1CCCCC1` 1.53

====

Give measured TGI for each item. Keep answers brief.
Test system: MOLT-4 leukemia
Assay remarks: NCI tumour cell line growth inhibition, 48 h

Requested field: TGI. Item: Nc1ncnc2c1nnn2C1C=CC(CP(=O)(O)O)C1 (stereo unspecified) > 100 µM

Record: `O=C(CCc1cc(O)cc(O)c1)NCCc1cc(OCc2ccccc2)cc(OCc2ccccc2)c1` 22.7 µM

Record: `Cc1nnc2n(c1=O)CCCN2C` > 100 µM

Record: `O=c1oc2ccc3ccccc3c2cc1-c1cn2ccsc2n1` 14.9 µM

Record: `CCCCI(O)OS(=O)(=O)c1ccc(C)cc1` > 100 µM

Record: `COc1ccc(C(=O)c2cc(OC)c(OC)c(OC)c2OC)cc1O` > 100 µM

====

Test system: HCT-15 colon
Assay remarks: NCI tumour cell line growth inhibition, 48 h; in the data active = GI50 below about 0.43 µM; inactive = the rest
Choose the fitting class; nothing outside active, inactive is accepted.

Assay result, entry CCN1C(=S)N(CC)C2C1NC(=S)N2/N=C/C=C/c1ccccc1OC (stereo not given) — outcome? active

Record: `N#Cc1nc2c(S(=O)(=O)c3ccc(Cl)cc3)c(N)n(Nc3cccc(Cl)c3)c2nc1C#N` active

Record: `O=C(OCc1ccc2c(Br)cc(Br)c(O)c2n1)c1cc2ccccc2[nH]1` active

Record: `CSC1=Nc2c(c(C)c(C)n2COC(CO)CO)C2=NC(=O)CN12` inactive

Record: `CCn1cc(C(=O)O)c(=O)c2cc(F)c(N3CCN(S(=O)(=O)c4cccc5ccccc45)CC3)cc21` inactive

Record: `COc1ccc2c(c1)c(-c1nc(-c3c[nH]c4ncccc34)cs1)cn2CCCN1CCOCC1` inactive

Record: `COc1cc2c(N3CCN(C(=O)Nc4ccc(OC(C)C)cc4)CC3)ncnc2cc1OCCCN1CCCCC1` inactive

Record: `Cc1cccc(NC(=O)c2sc3nc4c(cc3c2N)C(=O)CCC4)c1` active

Record: COC1N(C2CC(O)C(CO)O2)C(=O)NC(=O)C1(F)Br (stereo not given) inactive

Record: `O=C1c2cccc(Oc3ccccc3)c2C(=O)c2cccc(Oc3ccccc3)c21` inactive

====

Test system: A549 NSCLC
Assay remarks: NCI tumour cell line growth inhibition, 48 h; in the data active = GI50 below about 0.43 µM; inactive = the rest
Choose the fitting class; nothing outside class 1 (active), class 0 (inactive) is accepted.

Assay result, entry `O=C(OCc1ccc2c(Br)cc(Br)c(O)c2n1)c1cc2ccccc2[nH]1` — outcome? class 0

Record: CCCCCCCCCCCC[N+]1(CCCCCCCCCCCC)CCCC(C)C1 (centres undefined) class 1

Record: `COc1cc(CNc2nc3cc(N)cc(N)c3nc2-c2ccccc2)cc(OC)c1` class 0

Record: `O=C(NCCNCCO)c1ccc2c(c1)oc1cc3ccccc3c(=O)n12` class 0

Record: `CNCc1cccc2c1OCCOCCOCCN(C)S(=O)(=O)c1ccc(cc1)-c1cnc(N)c(n1)C(=O)N2` class 0

Record: `O=C(Nc1cccc(-n2cc(-c3ccncc3)c(-c3cc(O)cc(Cl)c3)n2)c1)c1ccc(N2CCOCC2)c(C(F)(F)F)c1` class 0

Record: `CCN=c1sc2c(n1NC(=O)c1cc3ccc1CCc1ccc(cc1)CC3)C(=O)c1ccccc1C2=O` class 0

Record: O=C(/C=C/C12c3ccccc3C(c3ccccc31)C1C(=O)NC(=O)C12)c1ccccn1 (centres undefined) class 0

Record: `CNC(=O)c1ncccc1Nc1nc(Nc2cc3c(cc2OC)CCCN3C(=O)CN(C)C)nc2[nH]ccc12` class 0
